experiment: amyloid nucleation score (Sup35N fusion, yeast selection) (log enrichment); library NNK3; higher = more nucleation; inactive = no reads after selection;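 further: zero at mode of non-aggregating sequences after 7 days selection at 30°C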
MEASURE_NAME: amyloid nucleation score

>>> df
         query_sequence              measure_name   reading
0         VVFWNFTRMLCLG  amyloid nucleation score  inactive
1  DKMKQKAQKVEDLHMAIGDD  amyloid nucleation score  inactive
2  MVKDCITRVYFVVWFDYSRS  amyloid nucleation score  inactive

* * *

assay: amyloid nucleation score (Sup35N fusion, yeast selection) (log enrichment); library NNK3; higher = more nucleation; inactive = no reads after selection
MEASURE_NAME: amyloid nucleation score

>>> df
         query_sequence   reading
0  MFWEGVTNSEMATKLHDKCI  inactive
1    PFWSGMIPIIEDPISGAL  inactive
2             VVRYPSMKE  inactive

Source listed as the supplement of paper PMC12042874.
